Test system: HOP-62
Test: NCI tumour cell line growth inhibition, 48 h
Activity calls are given as the source filed them. Cut-off read from the data, not from the text of the source: active = GI50 up to about 1.1 µM and inactive = higher.
observation_type: GI50

Cc1ccc(N2C(=O)C(Cl)=C(Cl)C2=O)cc1 ... 30.1 µM (inactive)
C=CCC12CC(=O)C=C1CCC1(C2)OCCO1 (configuration not stated) ... > 100 µM (inactive)
COC(=O)c1c(OC(C)=O)ccc2c1c1c(OC(C)=O)c3ccccc3c(OC(C)=O)c1n2C ... 24.4 µM (inactive)

We next turn to a different compound, shown below.
Please report GI50 with HOP-62 for item "CCOC(=O)c1cn(-c2ccccc2)c(=S)n2c1nc1ccccc12" .
53.2 µM (inactive)

====

System: M14
Assay: NCI tumour cell line growth inhibition, 48 h
Active and inactive are the calls of the source. No stated cut-off is given here; in the data, active = GI50 up to about 1.1 µM and inactive = higher.
observation_type: GI50

CCc1[nH]nc(C(N)=O)c1/N=N/N(C)C ... > 100 µM (inactive)
CSc1nc(Nc2ccccc2Cl)c2c(N)nn(C)c2n1 ... > 100 µM (inactive)
Cn1nc(-c2ccccc2)c2c(/C=C/c3ccc(Cl)cc3)onc2c1=O ... > 100 µM (inactive)
N#CCCC(CCC#N)(CCC#N)NO ... > 100 µM (inactive)
COC(=O)C1=C(OC(=O)/C(=C/c2ccccc2)c2ccccc2)C(C(=O)OC)[C@@]2(O)[C@@H](C(=O)OC)[C@H](C)C[C@@H]1[C@@H]2C(=O)OC (some centres undefined) ... > 100 µM (inactive)
CSc1ncnc2c1ncn2CCC#N ... > 100 µM (inactive)
O/N=C1\CSc2ccccc2C1 ... > 100 µM (inactive)
CC1(C)Oc2ccc3c(=O)c4ccccc4oc3c2C1C(=O)O (centres undefined) ... > 100 µM (inactive)

# return recorded GI50 for input "COc1cccc(/C=N/NC(N)=O)c1O"
> 100 µM (inactive)

# return recorded GI50 for input "COc1c2c(c3c(c1OC)c(=O)c1ccccc1n3C)OCO2"
> 100 µM (inactive)

# return recorded GI50 for input "Cc1cnccc1/N=N/c1ccc(N(C)C)cc1"
41.5 µM (inactive)

# return recorded GI50 for input "Nc1ccccc1Sc1ccc(Cl)cc1"
31.8 µM (inactive)

# return recorded GI50 for input "CC(=O)OC1(C)C=CC(=O)C=C1"
32.6 µM (inactive)

# return recorded GI50 for input "CC(=O)c1c(C(F)(F)F)[n+]([O-])c2cc(Cl)c(Cl)cc2[n+]1[O-]"
1.21 µM (inactive)

# return recorded GI50 for input O=C1CC2C=CC1C2CO (centres undefined)
> 100 µM (inactive)

# return recorded GI50 for input "Cc1ccc(-n2c(C)nc3c2C(=O)c2ccccc2C3=O)cc1"
58.2 µM (inactive)

# return recorded GI50 for input "O=C1C=C(Nc2ccc(S(=O)(=O)Nc3nccs3)cc2)c2ccccc2C1=O"
21.9 µM (inactive)

====

Test system: UACC-257
Assay: NCI tumour cell line growth inhibition, 48 h
Calls of active or inactive are those of the source. Cut-off read from the data, not from the text of the source: active = GI50 up to about 1.1 µM and inactive = higher.
observation_type: GI50

Cc1ccc(C#CS(=O)(=O)C(F)(F)F)cc1 ... > 100 µM (inactive)
c1ccc2c(c1)CC1COc3ccccc3C1O2 (stereo unspecified) ... 38.8 µM (inactive)
C#CCN(Cc1ccc2nc(OC)c(OC)nc2c1)c1cc(OC)c(OC)c(OC)c1 ... 12.3 µM (inactive)
COc1ccccc1-c1cc(O)c2cc3c(cc2n1)OCO3 ... 80.9 µM (inactive)
CCCCOC(=O)C1C2CCC(O2)C1C(=O)OCCCC (stereo unspecified) ... > 55.1 µM (inactive)

# return recorded GI50 for input CC1=CP(=O)(c2c(C(C)C)cc(C(C)C)cc2C(C)C)CCC1Cl (stereo unspecified)
11.6 µM (inactive)

# return recorded GI50 for input "CC(=O)Nc1ccc(/C=C2/NC(=S)N(/C=C3\C(=O)Oc4ccccc4C3=O)C2=O)cc1"
> 100 µM (inactive)

# return recorded GI50 for input COC(=O)C1=C(OC(=O)/C(=C/c2ccccc2)c2ccccc2)C(C(=O)OC)[C@@]2(O)[C@@H](C(=O)OC)[C@H](C)C[C@@H]1[C@@H]2C(=O)OC (stereo partly specified)
> 100 µM (inactive)

# return recorded GI50 for input COc1cc(COC(=O)N2CC=CC2C(=O)O)c([N+](=O)[O-])cc1OC (stereo unspecified)
> 100 µM (inactive)

# return recorded GI50 for input "Nc1ncnc2nc(N3CCN(CCO)CC3)[nH]c12"
> 100 µM (inactive)

# return recorded GI50 for input O=C1c2cc(Cl)ccc2N=C(NCCCl)C2CSCN12 (stereo unspecified)
> 100 µM (inactive)

# return recorded GI50 for input "O=C(NCCCCN(CCCNC(=O)C(F)(F)F)Cc1ccc2ccccc2c1)C(F)(F)F"
17.5 µM (inactive)

# return recorded GI50 for input "Cc1cc2c(cc1C)[n+]([O-])c(C(=O)/C=C/c1ccccc1[N+](=O)[O-])c(C)[n+]2[O-]"
75.9 µM (inactive)

# return recorded GI50 for input "COC(=O)c1ccc([N+](=O)[O-])c(O)c1"
> 100 µM (inactive)

# return recorded GI50 for input CC(=O)SCCC1c2[nH]c3ccccc3c2CCN1O (stereo unspecified)
> 100 µM (inactive)

# return recorded GI50 for input "NC1=NC(=O)[C@H](CSCc2ccccc2)N1C(=O)OCc1ccccc1"
> 100 µM (inactive)

# return recorded GI50 for input C[C@]12CC[C@@H]3c4ccc(OC(=O)c5ccccc5)cc4CC[C@H]3[C@@H]1CCC2OC(=O)c1cccc2c(=O)c3ccccc3[nH]c12 (stereo partly specified)
20.3 µM (inactive)

# return recorded GI50 for input "COc1ccc(/C=N/n2c(-c3ccccc3)n[nH]c2=O)c(OC)c1"
> 100 µM (inactive)

# return recorded GI50 for input CCCCCCCCCCCCCCC1OC(=O)c2ccccc21 (stereo unspecified)
52.7 µM (inactive)

# return recorded GI50 for input "O=C1C(Cl)=C(OCCCCl)C(=O)c2c(O)ccc(O)c21"
2.32 µM (inactive)

# return recorded GI50 for input "CCOC(=O)/C(=C\NC(C)(C)C)c1nc2ccccc2o1"
20.1 µM (inactive)
